Target: Full length human recombinant HDAC8 protein (Homo sapiens, UniProt Q9BY41)
Construct: Full length human recombinant HDAC8 protein was expressed in baculoviral system
Sequence (Q9BY41 whole entry): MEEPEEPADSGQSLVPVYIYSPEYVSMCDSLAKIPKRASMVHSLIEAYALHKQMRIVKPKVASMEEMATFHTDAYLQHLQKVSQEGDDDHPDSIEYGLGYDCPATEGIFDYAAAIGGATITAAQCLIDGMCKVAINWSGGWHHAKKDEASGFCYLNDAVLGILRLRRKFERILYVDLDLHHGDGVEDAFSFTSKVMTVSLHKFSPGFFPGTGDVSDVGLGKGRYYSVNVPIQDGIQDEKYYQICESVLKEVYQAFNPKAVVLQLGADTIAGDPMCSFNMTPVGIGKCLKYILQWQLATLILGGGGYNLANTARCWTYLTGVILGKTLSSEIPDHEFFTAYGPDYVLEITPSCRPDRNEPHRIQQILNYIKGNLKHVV
Assay: In vitro histone deacetylase assay: enzymatic HDAC8 assay, electrophoretic mobility shift
Settings: substrate RHKK(Ac)-NH2, 1 nM enzyme, compounds listed under IC50 range headings
Protocol: The enzymatic HDAC8 assay was performed using electrophoretic mobility shift assay. Full length human recombinant HDAC8 protein was expressed in baculoviral system and purified by affinity chromatography. […] The terminated assay plates were analyzed on LabChip® 3000 microfluidic electrophoresis instrument (Perkin Elmer/Caliper Life Sciences). The fluorescence intensity of the electrophoretically separated de-acetylated product and substrate peptide was measured. […]
pIC50: −log10 of the molar value.
pIC50 listing for selected compounds.

Some solved cases for reference:
// sample `Cc1c(S(=O)(=O)N2CCN(c3ccccc3/C=C/C(=O)NO)CC2)sc2ccc(Cl)cc12` , its pIC50 was 5.00 to 6.00

Form: compound = `O=C(/C=C/c1ccccc1N1CCC(NS(=O)(=O)c2ccc3c(c2)OCCO3)CC1)NO` ; pIC50 = > 6.00

Entry `O=C(/C=C/c1ccccc1N1CCN(S(=O)(=O)c2ccc3c(c2)OCCO3)CC1)NO` ; pIC50 = 5.00 to 6.00

The compound listed as `O=C(/C=C/c1ccccc1NC(=O)c1ccc(-n2cccn2)cc1)NO` has a reported pIC50 of > 6.00

The value of pIC50 measured for the compound `O=C(/C=C/c1ccccc1NC(=O)c1ccccc1Oc1ccc(Cl)cc1)NO` turned out to be > 6.00

Lab book: pIC50 of CC(C)(C)OC(=O)N1CCCCC12CCN(c1ccccc1/C=C/C(=O)NO)C2 (centres unmarked) noted as > 6.00

# pIC50 (compound: `O=C(/C=C/c1ccccc1N1CCC(NC(=O)c2ccoc2)CC1)NO` ) is > 6.00

Others:
Measured pIC50 of `CC(C)CCC(=O)NC1CCN(c2ccccc2/C=C/C(=O)NO)CC1` : > 6.00
